Target: T1, 4H3041-bH
T1 chain: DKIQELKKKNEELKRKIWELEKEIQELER
Assay: two-hybrid library CCNG1;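 also: natural log of median RNA to DNA barcode read ratio; higher means stronger binding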
measured_quantity: interaction score
Form: value (number only, do not type unit).

Record summary for DKIQELEKKNEELKRENWELEKKIQELKR [4H2518-bH] : reported interaction score = 0.765

Record summary for DKIQELEKKNEELEREIWELKKENQELKR [4H2444-bH] : reported interaction score = -0.0348

Record summary for DKIQELEKENEELKREIWELKKKIQELER [4H2253-bH] : reported interaction score = 0.872

Record summary for DEIQELEKENEELERKIWELEKKIQELKR [4H166-bH] : reported interaction score = 1.58

Record summary for DKIQELKKENEELKREIWELEKKNQELKR [4H2760-bH] : reported interaction score = 0.73

Record summary for DKIQELEKENEELERKNWELKKEIQELER [4H2233-bH] : reported interaction score = -0.641

Record summary for DEIQELEKENEELKRKIWELKKENQELER [4H235-bH] : reported interaction score = 0.0126

Record summary for DKIQELKKKNEELKRKIWELEKEIQELER [4H3041-bH] : reported interaction score = 0.721
